- Test system: Staphylococcus epidermidis
- procedure-text: Antibacterial activity against penicillin-resistant Staphylococcus epidermidis clinical isolate by broth microdilution method
- Type: functional
The following compounds are listed with their measured MIC values.
Entry rule: numbers only, all in mg/L.

Known MIC results, listed for orientation:
CC[C@H]1OC(=O)[C@H](C)[C@@H](O)[C@H](C)[C@@H](O[C@@H]2O[C@H](C)C[C@H](N(C)C)[C@H]2OC(=O)Nc2cccc(Cl)c2)[C@](C)(O)C[C@@H](C)CN(C)[C@H](C)[C@H]2OC(=O)O[C@@]21C	32
CC[C@H]1OC(=O)[C@H](C)[C@@H](O[C@H]2C[C@@](C)(OC)[C@@H](O)[C@H](C)O2)[C@H](C)[C@@H](O[C@@H]2O[C@H](C)C[C@H](N(C)C)[C@H]2O)[C@](C)(O)C[C@@H](C)CN(C)[C@H](C)[C@@H](O)[C@]1(C)O [AZITHROMYCIN]	0.25

Staphylococcus epidermidis / MIC / "CC[C@H]1OC(=O)[C@H](C)[C@@H](OC(=O)Nc2ccccc2C)[C@H](C)[C@@H](O[C@@H]2O[C@H](C)C[C@H](N(C)C)[C@H]2O)[C@](C)(O)C[C@@H](C)CN(C)[C@H](C)[C@@H](OC(=O)NCc2ccccc2)[C@]1(C)O" : value?
0.25
